- Test system: p38-beta
- Construct: gene MAPK11
- Condition Summary: concentration: 1 μM, replicates: in singlicate; n = 1
Property: %Inh; scope: individual compounds
Please answer in the form of a number followed by its unit of measurement.

Compound | %Inh
Fc1cccc(CSc2nnc(-c3ccc4c(c3)CCO4)o2)c1 | 16%
COc1ccc(-c2cc3c(C)nc(N)nc3n([C@H]3CC[C@H](OCCO)CC3)c2=O)cn1 | 0%
Cn1c(=O)c(F)c(Nc2ccc(I)cc2F)c2c(=O)n(OC[C@H](O)CO)cnc21 | 11%
COc1cc2ncn(-c3cc(OCc4ccncc4Br)c(C(N)=O)s3)c2cc1OC [GW854278] | 0%
O=C1NC(=O)C(c2ccccc2)=C1Nc1cccc(O)c1 [SB-390534] | 3%

Test system p38-beta; read-out %Inh; what value for CCCC(=O)Nc1n[nH]c2ncc(-c3cccc4ccccc34)cc12 [SB-642057] ?;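 further: KINOMEscan kinase panel screen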
4%

Query COc1ccc(CNC(=O)NC2CCN(c3ccnc(Nc4ccc(F)cc4)n3)C2)cc1 (stereo not drawn) [GSK1379706] next
0%

Query O=C(Nc1n[nH]c2nc(-c3ccccc3)c(Cl)cc12)C1CC1 [SB-734909] next
39%

Query Cc1ccc(Oc2ccc(Nc3ncnc4cc[nH]c34)cc2C)cn1 next
28%

src = paper PMC5540273
